Across several publications, the following pKi results were reported for Melatonin receptor type 1B (Homo sapiens).
pKi: −log10 of the molar value.
Returns one of Fulfilled or Not fulfilled; Fulfilled when pKi is >= 8.

{"columns": ["compound", "experimental_system", "group"],
 "data": [
  ["CC(C)C(=O)NCCCc1cccc2c1C[C@@H](CCCCc1ccccc1)O2", "Melatonin receptor type 1B (Homo sapiens)", "Not fulfilled"],
  ["CC(=O)NCC1CNc2ccccc2C1 (racemic)", "Melatonin receptor type 1B (Homo sapiens)", "Not fulfilled"],
  ["COc1cc2c(CCNC(C)=O)c[nH]c2cn1", "Melatonin receptor type 1B (Homo sapiens)", "Not fulfilled"],
  ["COc1cc2c(CCNC(C)=O)c(I)n(C)c2cc1[N+](=O)[O-]", "Melatonin receptor type 1B (Homo sapiens)", "Fulfilled"],
  ["CCCCCOC(=O)c1[nH]c2ccc(OC)cc2c1CCNC(C)=O", "Melatonin receptor type 1B (Homo sapiens)", "Fulfilled"],
  ["COc1ccc2ccc(OC)c3c2c1CCC3CNC(C)=O (configuration not stated)", "Melatonin receptor type 1B (Homo sapiens)", "Fulfilled"]
]}

// query Identify whether the reported pKi of the following compound is 8 or greater: CCCOc1ccc(OC)cc1CCCNC(C)=O
// result Fulfilled

// query Now consider COc1ccc2cnnc(CCNC(C)=O)c2c1 and answer again.
// result Not fulfilled

// query Now consider CCCC(=O)NCCCc1cccc2oc(CCCCc3ccccc3)cc12 and answer again.
// result Not fulfilled
